study_system: N-formyl peptide receptor 2 (Homo sapiens)
Sequence (P25090 whole entry): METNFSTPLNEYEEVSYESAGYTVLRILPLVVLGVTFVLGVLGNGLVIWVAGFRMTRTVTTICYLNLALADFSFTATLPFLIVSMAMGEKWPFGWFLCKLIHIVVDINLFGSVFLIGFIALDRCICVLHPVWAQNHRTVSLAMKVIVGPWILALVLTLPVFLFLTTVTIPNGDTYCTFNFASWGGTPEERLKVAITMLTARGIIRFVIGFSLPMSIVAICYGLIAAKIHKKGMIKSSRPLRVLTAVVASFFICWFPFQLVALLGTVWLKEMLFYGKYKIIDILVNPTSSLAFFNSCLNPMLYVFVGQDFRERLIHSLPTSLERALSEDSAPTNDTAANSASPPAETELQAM
experiment_description: Activity at human FPRL1-mediated calcium mobilization in CHO cells
metric: EC50 (nM)

1 = CC(C)c1c(NC(=O)Nc2ccc(C(F)(F)F)cc2)c(=O)n(-c2cncnc2)n1C
2 = Cc1ccc(NC(=O)Nc2c(C(C)(C)C)n(C)n(-c3ccccc3)c2=O)cc1F
3 = Cn1c(C(C)(C)C)c(NC(=O)Nc2ccc(Cl)cc2)c(=O)n1-c1ccccc1
4 = Cc1c(NC(=O)Nc2ccc(C(C)C)cc2)c(=O)n(-c2ccccc2)n1C
5 = CC(C)c1c(NC(=O)Nc2ccc(C(F)(F)F)cc2)c(=O)n(C2=NCCS2)n1C
Put the items in sequence by EC50, from largest down. Form entry: ranked labels (order as requested).
4, 5, 1, 2, 3

A = CSc1ccc(NC(=O)Nc2c(C)n(C)n(-c3ccccc3)c2=O)cc1
B = Cc1c(NC(=O)Nc2ccc(C#N)cc2)c(=O)n(-c2ccccc2)n1C
Pick one: A or B . Which has the bigger EC50 number? Please identify the chosen entry by its label.
B
(B: 3700 nM, A: 170 nM)
